biological target: hamster Abcb1a Pgp (Cricetulus griseus, UniProt P21448); assay: Fluorosome-trans-pgp; conditions: IC50,Fl, Table 2, half-maximal concentration for inhibition of transport in Fl-t-pgp
Sequence (P21448 whole entry): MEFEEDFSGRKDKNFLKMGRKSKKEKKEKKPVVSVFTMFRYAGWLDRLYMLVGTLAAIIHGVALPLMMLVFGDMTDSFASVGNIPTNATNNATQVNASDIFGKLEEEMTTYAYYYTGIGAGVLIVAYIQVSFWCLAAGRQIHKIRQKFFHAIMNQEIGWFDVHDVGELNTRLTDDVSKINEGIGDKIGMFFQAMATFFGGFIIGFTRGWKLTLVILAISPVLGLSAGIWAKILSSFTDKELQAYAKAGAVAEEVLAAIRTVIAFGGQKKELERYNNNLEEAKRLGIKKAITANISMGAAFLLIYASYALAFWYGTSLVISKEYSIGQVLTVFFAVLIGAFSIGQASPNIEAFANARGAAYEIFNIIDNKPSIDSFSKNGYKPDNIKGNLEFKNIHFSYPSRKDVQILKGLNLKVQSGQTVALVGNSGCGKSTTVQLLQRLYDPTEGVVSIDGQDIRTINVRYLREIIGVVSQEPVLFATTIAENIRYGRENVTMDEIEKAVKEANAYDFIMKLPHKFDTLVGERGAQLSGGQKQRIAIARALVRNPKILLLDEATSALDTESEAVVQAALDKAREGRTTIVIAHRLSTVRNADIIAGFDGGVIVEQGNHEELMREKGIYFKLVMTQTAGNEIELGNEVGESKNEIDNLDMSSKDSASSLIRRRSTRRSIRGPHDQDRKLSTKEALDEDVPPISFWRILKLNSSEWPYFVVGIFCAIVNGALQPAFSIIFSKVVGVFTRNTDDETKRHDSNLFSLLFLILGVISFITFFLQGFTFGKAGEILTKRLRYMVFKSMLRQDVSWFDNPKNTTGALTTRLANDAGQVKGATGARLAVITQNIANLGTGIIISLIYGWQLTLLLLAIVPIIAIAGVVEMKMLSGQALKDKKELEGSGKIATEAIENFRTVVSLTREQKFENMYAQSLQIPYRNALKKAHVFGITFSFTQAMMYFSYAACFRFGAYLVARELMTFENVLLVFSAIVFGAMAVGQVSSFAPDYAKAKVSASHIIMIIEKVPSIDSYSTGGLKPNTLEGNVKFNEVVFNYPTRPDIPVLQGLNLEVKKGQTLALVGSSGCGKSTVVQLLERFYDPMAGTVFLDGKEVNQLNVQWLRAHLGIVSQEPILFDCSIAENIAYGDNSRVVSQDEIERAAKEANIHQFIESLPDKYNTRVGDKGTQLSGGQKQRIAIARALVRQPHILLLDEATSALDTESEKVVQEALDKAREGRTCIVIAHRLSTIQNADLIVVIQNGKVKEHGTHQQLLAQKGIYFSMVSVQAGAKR
pIC50: −log10 of the molar value.
pIC50 of 5 or higher: MET. Under 5: NOT MET.

compound	systemTested	group
COC(=O)C1=C(C)NC(C)=C(C(=O)OCCN(C)Cc2ccccc2)C1c1cccc([N+](=O)[O-])c1 (stereo not shown)	hamster Abcb1a Pgp (Cricetulus griseus, UniProt P21448)	MET
CCOC(=O)C1=C(C)NC(C)=C(C(=O)OC)C1c1cccc([N+](=O)[O-])c1 (stereo not shown)	hamster Abcb1a Pgp (Cricetulus griseus, UniProt P21448)	MET
COc1ccccc1OCC(O)CN1CCN(CC(=O)Nc2c(C)cccc2C)CC1 (stereo not shown)	hamster Abcb1a Pgp (Cricetulus griseus, UniProt P21448)	NOT MET
CN[C@H]1CC[C@@H](c2ccc(Cl)c(Cl)c2)c2ccccc21	hamster Abcb1a Pgp (Cricetulus griseus, UniProt P21448)	NOT MET
COc1ccccc1OCCNCC(O)COc1cccc2[nH]c3ccccc3c12 (stereo not shown)	hamster Abcb1a Pgp (Cricetulus griseus, UniProt P21448)	MET
COC(=O)C1=C(C)NC(C)=C(C(=O)OC(C)C)C1c1cccc2nonc12 (stereo not shown)	hamster Abcb1a Pgp (Cricetulus griseus, UniProt P21448)	MET
COc1ccc([C@@H]2Sc3ccccc3N(CCN(C)C)C(=O)[C@@H]2OC(C)=O)cc1	hamster Abcb1a Pgp (Cricetulus griseus, UniProt P21448)	NOT MET
COCC(=O)O[C@]1(CCN(C)CCCc2nc3ccccc3[nH]2)CCc2cc(F)ccc2[C@@H]1C(C)C	hamster Abcb1a Pgp (Cricetulus griseus, UniProt P21448)	MET

Given CCCc1nc2c(C)cc(-c3nc4ccccc4n3C)cc2n1Cc1ccc(-c2ccccc2C(=O)O)cc1 , state whether its pIC50 is at least 5. MET

Same question, Cc1c(C)c2c(c(C)c1O)CCC(C)(COc1ccc(CC3SC(=O)NC3=O)cc1)O2 (stereo not shown) this time MET

====

Catalogue of pKd readings, one per entry.
target: hamster Abcb1a Pgp (Cricetulus griseus, UniProt P21448); test: biochemical; format: binding
Expect pKd as a plain number equal to -log10 of the molar concentration.

Examples with their reported pKd follow.
compound	systemTested	pKd
COC(=O)[C@H]1[C@H]2C[C@@H]3c4[nH]c5cc(OC)ccc5c4CCN3C[C@H]2C[C@@H](OC(=O)c2cc(OC)c(OC)c(OC)c2)[C@@H]1OC	hamster Abcb1a Pgp (Cricetulus griseus, UniProt P21448)	6.14
CC(=O)O[C@H]1C(=O)[C@@]2(C)[C@H]([C@H](OC(=O)c3ccccc3)[C@]3(O)C[C@H](OC(=O)[C@H](O)[C@@H](NC(=O)c4ccccc4)c4ccccc4)C(C)=C1C3(C)C)[C@]1(OC(C)=O)CO[C@@H]1C[C@@H]2O	hamster Abcb1a Pgp (Cricetulus griseus, UniProt P21448)	7.42
COc1cc2c(cc1OC)CN(CCc1ccc(NC(=O)c3cccc4c(=O)c5cccc(OC)c5[nH]c34)cc1)CC2	hamster Abcb1a Pgp (Cricetulus griseus, UniProt P21448)	6.23

Query (compound): C/C=C/C[C@@H](C)C(=O)[C@H]1C(=O)N[C@@H](C(C)C)C(=O)N(C)CC(=O)N(C)[C@@H](CC(C)C)C(=O)N[C@@H](C(C)C)C(=O)N(C)[C@@H](CC(C)C)C(=O)N[C@@H](C)C(=O)N[C@H](C)C(=O)N(C)[C@@H](CC(C)C)C(=O)N(C)[C@@H](CC(C)C)C(=O)N(C)[C@@H](C(C)C)C(=O)N1C ; field requested: pKd 7.10

COC(=O)C1=C(C)NC(C)=C(C(=O)OCCN(C)Cc2ccccc2)C1c1cccc([N+](=O)[O-])c1 (stereo not drawn) ? 5.19

Item: Cc1c(O)cccc1C(=O)N[C@@H](CSc1ccccc1)[C@H](O)CN1C[C@H]2CCCC[C@H]2C[C@H]1C(=O)NC(C)(C)C 6.01

====

biological target: hamster Abcb1a Pgp (Cricetulus griseus); experiment: Fluorosome-trans-pgp; details: read-out: IC50 Fl-t-pgp; inhibition of S-HR transport, 2 mM ATP, 23°C
Residues, ends and D or L forms follow the SMILES beside them.
Consider the following compounds and their measured IC50 readings.
Give the value, in units of µM, as a plain number.

compound	unitAnnotation	recordedValue
COc1ccc2c3c([nH]c2c1)[C@H](CC(C)C)N1C(=O)[C@H](CCC(=O)OC(C)(C)C)NC(=O)[C@@H]1C3 [Ko143]	µM	7.5
O[C@@H](COc1cccc2ncccc12)CN1CCN([C@@H]2c3ccccc3[C@@H]3[C@H](c4ccccc42)C3(F)F)CC1 [Zosuquidar]	µM	0.59

Here's the next entry for you.
Looking for the measured IC50 of CC(=O)NC(CC(C)C)C(=O)NC(CC(C)C)C(=O)NC(Cc1ccc(O)cc1)C(N)=O (stereo not drawn) [NAc-LLY-amide] (Ac-Leu-Leu-Tyr-NH2; configuration not given here) , can you help? 13

====

Quick list: IC50 per entry.
target: hamster Abcb1a Pgp (Cricetulus griseus, UniProt P21448); assay: Fluorosome-trans-pgp; details: IC50 Fl-t-pgp, inhibition of S-HR transport, 2 mM ATP, 23°C
Provide only the numeric value, understood in µM.

molecule	IC50 (µM)
CC(=O)[C@H]1CC[C@H]2[C@@H]3CCC4=CC(=O)CC[C@]4(C)[C@H]3CC[C@]12C [Progesterone]	3.7
COc1ccc([C@@H]2Sc3ccccc3N(CCN(C)C)C(=O)[C@@H]2OC(C)=O)cc1 [Diltiazem]	24
COc1ccccc1OCC(O)CN1CCN(CC(=O)Nc2c(C)cccc2C)CC1 (centres unmarked) [Ranolazine]	64
CCCc1nc2c(C)cc(-c3nc4ccccc4n3C)cc2n1Cc1ccc(-c2ccccc2C(=O)O)cc1 [Telmisartan]	0.12
COc1ccccc1OCCNCC(O)COc1cccc2[nH]c3ccccc3c12 (centres unmarked) [Carvedilol]	3.8
Cc1c(O)cccc1C(=O)N[C@@H](CSc1ccccc1)[C@H](O)CN1C[C@H]2CCCC[C@H]2C[C@H]1C(=O)NC(C)(C)C [Nelfinavir]	0.59
CN[C@H]1CC[C@@H](c2ccc(Cl)c(Cl)c2)c2ccccc21 [Sertraline]	29

Fill in the blank: the reported IC50 of COc1ccc2c(c1)c(CC(=O)O)c(C)n2C(=O)c1ccc(Cl)cc1 [Indomethacin] is ____. 51

====

target: hamster Abcb1a Pgp (Cricetulus griseus, UniProt P21448); test: Fluorosome-trans-pgp; details: IC50 Fl-t-pgp, inhibition of S-HR transport, 2 mM ATP, 23°C
reportedProperty: IC50 (µM)
All answers are understood in µM, so give the number only.

What IC50 appears in the records for this compound with hamster Abcb1a Pgp (Cricetulus griseus, UniProt P21448)? COCC(=O)O[C@]1(CCN(C)CCCc2nc3ccccc3[nH]2)CCc2cc(F)ccc2[C@@H]1C(C)C 7.1

====

target: hamster Abcb1a Pgp (Cricetulus griseus); assay: Fluorosome-trans-pgp; conditions: IC50 Fl-t-pgp, inhibition of S-HR transport, 2 mM ATP, 23°C
Non-standard residues stand in square brackets, D forms with d. Residues, ends and D or L forms follow the SMILES beside them. *: point of attachment. Sta = CC(C)C[C@H](N)[C@@H](O)CC(=O)O; Isovaleryl = CC(C)CC(=O)*
reportedProperty: pIC50
Give only the number. pIC50 is defined as minus log10 of concentration in molar units.

These solved cases illustrate the format of a correct answer.
compound	recordedValue
CC(C)CC(=O)N[C@H](C(=O)N[C@H](C(=O)N[C@@H](CC(C)C)[C@@H](O)CC(=O)N[C@@H](C)C(=O)N[C@@H](CC(C)C)[C@@H](O)CC(=O)O)C(C)C)C(C)C [Pepstatin A] (Isovaleryl-VV[Sta]A[Sta]-OH)	4.54
C[C@H]1O[C@@H](O[C@H]2[C@@H](O)C[C@H](O[C@H]3[C@@H](O)C[C@H](O[C@H]4CC[C@@]5(C)[C@H](CC[C@@H]6[C@@H]5C[C@@H](O)[C@]5(C)[C@@H](C7=CC(=O)OC7)CC[C@]65O)C4)O[C@@H]3C)O[C@@H]2C)C[C@H](O)[C@@H]1O	4.10
COC(=O)[C@H]1[C@H]2C[C@@H]3c4[nH]c5cc(OC)ccc5c4CCN3C[C@H]2C[C@@H](OC(=O)c2cc(OC)c(OC)c(OC)c2)[C@@H]1OC	6.51

Which measured pIC50 value corresponds to Cc1c(C)c2c(c(C)c1O)CCC(C)(COc1ccc(CC3SC(=O)NC3=O)cc1)O2 (centres unmarked) ? 5.28

Repeat for the following compound: COC(=O)C1=C(C)NC(C)=C(C(=O)OCCN(C)Cc2ccccc2)C1c1cccc([N+](=O)[O-])c1 (centres unmarked) 6.03

Now consider C/C=C/C[C@@H](C)C(=O)[C@H]1C(=O)N[C@@H](C(C)C)C(=O)N(C)CC(=O)N(C)[C@@H](CC(C)C)C(=O)N[C@@H](C(C)C)C(=O)N(C)[C@@H](CC(C)C)C(=O)N[C@@H](C)C(=O)N[C@H](C)C(=O)N(C)[C@@H](CC(C)C)C(=O)N(C)[C@@H](CC(C)C)C(=O)N(C)[C@@H](C(C)C)C(=O)N1C and answer again. 6.60
